biological target: T1, human BAFF (10056-HNCH, Sino biological) (human, UniProt Q9Y275 134-285); assay: competition ELISA: biotin-labeled BAFF to coated BAFF-R
T1 construct: Bought protein
property_label: IC50 (nM)
Value expressed in nM; do not type the unit.

Example results:
{"binder": "TACI-18Fc (Fc fusion, Fused directly to Fc; two identical polypeptides) CRKEQGKFYDHLLRDCISCASICGQHPKQCAYFCEDKTHTCPPCPAPEAEGAPSVFLFPPKPKDTLMISRTPEVTCVVVDVSHEDPEVKFNWYVDGVEVHNAKTKPREEQYNSTYRVVSVLTVLHQDWLNGKEYKCKVSNKALPSSIEKTISKAKGQPREPQVYTLPPSRDELTKNQVSLTCLVKGFYPSDIAVEWESNGQPENNYKTTPPVLDSDGSFFLYSKLTVDKSRWQQGNVFSCSVMHEALHNHYTQKSLSLSPGK", "measurement_unit": "nM", "val": 3.26}
{"binder": "TACI-1 Fc (Fc fusion, two identical polypeptides) SGLGRSRKGGKSRVDQEERFPQGLWTGVAMRSCPEEQYWDPLLGTCMSCKTICNHQSQRTCAAFCRSLSCRKEQGKFYDHLLRDCISCASICGQHPKQCAYFCENKLRSPVNLPPELRKQRSGEVEQNSDNSGKYQGLEHRGSEASPALPGLKLSADQVALVYSDKTHTCPPCPAPEAEGAPSVFLFPPKPKDTLMISRTPEVTCVVVDVSHEDPEVKFNWYVDGVEVHNAKTKPREEQYNSTYRVVSVLTVLHQDWLNGKEYKCKVSNKALPSSIEKTISKAKGQPREPQVYTLPPSRDELTKNQVSLTCLVKGFYPSDIAVEWESNGQPENNYKTTPPVLDSDGSFFLYSKLTVDKSRWQQGNVFSCSVMHEALHNHYTQKSLSLSPGK", "measurement_unit": "nM", "val": 44.7}
{"binder": "TACI-8 Fc (Fc fusion, two identical polypeptides) SLSCRKEQGKFYDHLLRDCISCASICGQHPKQCAYFCENKLRSPVNLPPELRKQRSGEVENNSDNSGKYQGLEHRGSEASPALPGLKLSADQVALVYSDKTHTCPPCPAPEAEGAPSVFLFPPKPKDTLMISRTPEVTCVVVDVSHEDPEVKFNWYVDGVEVHNAKTKPREEQYNSTYRVVSVLTVLHQDWLNGKEYKCKVSNKALPSSIEKTISKAKGQPREPQVYTLPPSRDELTKNQVSLTCLVKGFYPSDIAVEWESNGQPENNYKTTPPVLDSDGSFFLYSKLTVDKSRWQQGNVFSCSVMHEALHNHYTQKSLSLSPGK", "measurement_unit": "nM", "val": 22.5}
{"binder": "TACI-16Fc (Fc fusion, Fused directly to Fc; two identical polypeptides) LSCRKEQGKFYDHLLRDCISCASICGQHPKQCAYFCEDKTHTCPPCPAPEAEGAPSVFLFPPKPKDTLMISRTPEVTCVVVDVSHEDPEVKFNWYVDGVEVHNAKTKPREEQYNSTYRVVSVLTVLHQDWLNGKEYKCKVSNKALPSSIEKTISKAKGQPREPQVYTLPPSRDELTKNQVSLTCLVKGFYPSDIAVEWESNGQPENNYKTTPPVLDSDGSFFLYSKLTVDKSRWQQGNVFSCSVMHEALHNHYTQKSLSLSPGK", "measurement_unit": "nM", "val": 2.22}

Below: the item to evaluate.
TACI-21Fc (Fc fusion, Fused directly to Fc; two identical polypeptides) EQGKFYDHLLRDCISCASICGQHPKQCAYFCEDKTHTCPPCPAPEAEGAPSVFLFPPKPKDTLMISRTPEVTCVVVDVSHEDPEVKFNWYVDGVEVHNAKTKPREEQYNSTYRVVSVLTVLHQDWLNGKEYKCKVSNKALPSSIEKTISKAKGQPREPQVYTLPPSRDELTKNQVSLTCLVKGFYPSDIAVEWESNGQPENNYKTTPPVLDSDGSFFLYSKLTVDKSRWQQGNVFSCSVMHEALHNHYTQKSLSLSPGK yielded IC50 of 2520
